Molecular target: T1, human CD71 extracellular domain (CD71-ECD) (human, UniProt P02786 89-760)
T1 construct: It was captured on a Neutravidin plate; also called hCD71; transferrin receptor 1 ECD
T1 sequence (P02786 89-760): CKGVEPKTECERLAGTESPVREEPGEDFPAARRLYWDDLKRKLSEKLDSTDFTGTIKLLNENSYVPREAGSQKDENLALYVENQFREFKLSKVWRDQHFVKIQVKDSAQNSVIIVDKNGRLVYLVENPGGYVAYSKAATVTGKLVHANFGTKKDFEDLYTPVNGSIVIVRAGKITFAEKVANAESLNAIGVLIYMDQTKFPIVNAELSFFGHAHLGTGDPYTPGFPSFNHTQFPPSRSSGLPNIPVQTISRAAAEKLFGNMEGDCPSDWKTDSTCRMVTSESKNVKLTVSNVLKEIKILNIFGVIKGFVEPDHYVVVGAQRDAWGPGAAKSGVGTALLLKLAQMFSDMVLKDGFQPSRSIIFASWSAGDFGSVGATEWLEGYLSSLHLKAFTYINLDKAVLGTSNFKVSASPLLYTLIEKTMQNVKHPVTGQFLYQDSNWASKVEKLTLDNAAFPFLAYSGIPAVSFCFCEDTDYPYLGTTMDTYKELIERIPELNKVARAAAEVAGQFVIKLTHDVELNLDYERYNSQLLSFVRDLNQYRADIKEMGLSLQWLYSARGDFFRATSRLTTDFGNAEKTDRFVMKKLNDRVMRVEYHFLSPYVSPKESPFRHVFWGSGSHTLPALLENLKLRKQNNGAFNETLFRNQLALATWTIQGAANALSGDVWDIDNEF
Experiment: capture ELISA, 20 nM antigen on Neutravidin plate, FN3 titrated 250 to 0.3 nM
pEC50: −log10 of the molar value.
measured quantity: pEC50

- binder: "CD71-binding FN3 domain of SEQ ID NO: 529 (designed binder, Tencon-based FN3 domain) MLPAPKNLVVSRVTEDSARLSWTAPDAAFDSFFIGYLEPQPPGEAIDLYVPGSERSYDLTGLKPGTEYNVTIQGVKGGFPSLPLQAHFTT"
  recorded result: 8.64
- binder: "CD71-binding FN3 domain of SEQ ID NO: 373 (designed binder, Tencon-based FN3 domain) MLPAPKNLVVSRVTEDSARLSWTAPDAAFDSFFIGYLEPQPPGEAISLFVPGSERSYDLTGLKPGTEYNVTIQGVKGGFPSDPLVASFTT"
  recorded result: 9.04
- binder: "CD71-binding FN3 domain of SEQ ID NO: 400 (designed binder, Tencon-based FN3 domain) MLPAPKNLVVSRVTEDSARLSWTAPDAAFDSFFIGYLEPQPPGEAIHLFVPGSERSYDLTGLKPGTEYNVTIQGVKGGFPSGPLHATFTT"
  recorded result: 8.55
- binder: "CD71-binding FN3 domain of SEQ ID NO: 508 (designed binder, Tencon-based FN3 domain) MLPAPKNLVVSRVTEDSARLSWTAPDAAFDSFFIGYLEPQPPGEAITLSVPGSERSYDLTGLKPGTEYNVTIQGVKGGFPSEPLIAIFTT"
  recorded result: 8.26
